Let's look at some molecules and their measured half-life.
- method summary: half-lives of hydrolysis of cytosine and 5-fluorocytosine derivatives in phosphate buffer
- condition info: phosphate buffer, pH 8, Half-life of hydrolysis

{"molecule": "O=c1nc(NCN2CCCCC2)c(F)cn1CN1CCCCC1", "half-life (s)": 47.4}
{"molecule": "CN(C)CNc1nc(=O)n(CN(C)C)cc1F [XIII, hydrate]", "half-life (s)": 52.2}
{"molecule": "O=c1nc(NCN2CCCC2)c(F)cn1CN1CCCC1 [XV, hydrate]", "half-life (s)": 39.6}
{"molecule": "O=c1nc(NCN2CCOCC2)c(F)cn1CN1CCOCC1 [XVI, hydrate]", "half-life (s)": 2050}
{"molecule": "CN1CCN(CNc2nc(=O)n(CN3CCN(C)CC3)cc2F)CC1 [XVII, hydrate]", "half-life (s)": 1710}
